Assignment: determine reported apparent KD of K4 kissing-loop reporter for the given sequences.
test system: K4 kissing-loop RNA reporter; experiment: apparent KD of K4 kissing-loop reporter; higher = weaker reporter binding; conditions: Eterna round: R107; input ligand: FMN 200 uM;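 note: bound reporter read as fluorescence of individual clusters on recovered sequencing chips by microscopy, with normalized cluster intensities fitted with a binding model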
Numbers only, in nM.

UUUCGGCUCUGAGGAUAUUCGGACAAAUAUAGUGAUGUUGUAUAAGGAGGAGGGUGUUGGCAGUGAGGAGAAGGCAGAGGAGGAU [#07 K4 FMN B Exclusion]    376

Batch: apparent KD of K4 kissing-loop reporter for all items listed.
1. AGCCGAAAGGCGAGUGCUGUCACUCCGGAAGGAGCGCCCAAAAGGGCAGGUAGGUCGCCGGAGUGAUGUUCCGGUGCAGCACUCA [Omei KL Arginine A Exc B v3]
2. AUUUAAUGUAUAGAUUAUAUACAUUAUUCAGAGGAUAUGCAUUGAAGCAGAAGGCUGGGUGUAGUGAUGUUGCAAUUUUAAUUUA [whbob_SS_FMNA__2th172]
3. GGUAGCAUGGCGGCCGCCACUCGCAUCACAGGCCAUUAACCGCCCUCGUAAAGUGAUGUUUUACAGAGGACCGGGCCAUGCUACC
4. AUUAAUUUCAGAGGAUAUCGUUAUUUUUUAUAUUUUAUUCAUUUAUGCAGUGAUGUUGCUAUUAUUCGAGAAGGCUGAUUUAUAA [JR_ExcFMNB_Sub004]
5. GAUAUAGUGAUGUUAUAUACUGAUAGACAACGAGGACCGGUACGGCCGCCACUCGAGAGGGUGAAAAUGAUGAUAAAAUAAUGAU [#02 K4 Tryptophan A Exclusion]

1: 572; 2: 118; 3: 331; 4: 86.4; 5: 329

====

tested on: MS2 coat protein; test: apparent KD of MS2 coat protein; designed switch direction (-1 OFF switch, 1 ON switch): 1; higher = weaker reporter binding; details: input ligand: microRNA oligo, concentration not stated
Could you please report measured apparent KD of MS2 coat protein for the items listed next?
One number for each entry, in µM.

Reference set (2 entries):
GUGGUCAGACAUGAGGAUCACCCAUGUGGAAUAAAUAAGGAGAAGGAUAUGCAAUAUAGGAUAUAGCAGAAGGUCUGGUUGGUG (Eterna round: R96, puzzle: Same State NG 3)    0.0585
AAAGAAAACGCAGGAUAUACCCGGGAAACCGAGGUAGAAGGGUGAACCAAAACAAAACUAAAUAACAUGAGGAUCACCCAUGUC [Biarzara] (Eterna round: R96, puzzle: Same State NG 1)    0.0127

Moving on to another sequence below.
The measured apparent KD of MS2 coat protein associated with GCGGAACCUGACAUGAGGAUCACCCAUGUUCCGGAAACGGCACAGGAUAUCUGUCCGAAAAGGUCAGAGAAGGGUGAAAACCGC [Fiskers NG3ss - 96] (Eterna round: R96, puzzle: Same State NG 3) reads 0.714

====

For each entry below, report its apparent KD of MS2 coat protein value.
tested on: MS2 coat protein; assay: apparent KD of MS2 coat protein, switch OFF state (with FMN for OFF switches, without FMN for ON switches); designed switch direction (-1 OFF switch, 1 ON switch): -1; higher = weaker reporter binding; details: FMN input: 0 or 200 uM; Eterna round: R93 (includes R88 designs)
Give bare numbers, in nM.

GAGAAUGAAGGAUAUACAUGAGGAUCACCCAUGUAAGAGAAAGAGGGAAAAGAGAAAAGUAGAAGGUCAAAGAG [Ruby 73]    26

Parameter requested: apparent KD of MS2 coat protein. Apply to each item below.
1. AAAACGGUAGGAUAUACGAUUUGGAACUAGACCGAGGAACCACAUGAGGAUCACCCAUGUAGAAGGGCCAAAAA [EX2 Malc#17]
2. AAAAAGAGAGGAUAUGCAGGAGGUAAGGUCAAAAAAAAAAAACAUGAGGAUCACCCAUGUAGAAGGUUUAAAAA [Ecls2-VI]
3. AAAAAGUGAGGAUAUACAUGAGGAUCACCCAUGUUAAAAAAAAAAAAAUAUAAAAAUAGUAGAAGGCACAAAAA [Default title]

1: 10.7; 2: 23.5; 3: 41.3
